- study-system: recombinant human GREM1 (hGREM1-His; C-terminal 10His tagged, R&D, #5190-GR) (human) (UniProt O60565)
- Sequence (O60565 other isoform, or with tags, fused parts or gaps limits assumed, form in doubt): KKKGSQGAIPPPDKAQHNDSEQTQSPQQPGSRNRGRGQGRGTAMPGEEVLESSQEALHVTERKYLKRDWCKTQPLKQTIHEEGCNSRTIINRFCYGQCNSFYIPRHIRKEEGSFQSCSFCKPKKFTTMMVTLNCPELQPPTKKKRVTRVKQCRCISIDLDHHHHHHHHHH
- experimental-details: cell-based or functional assay
Reported values of hGREM1-His Inhibition IC50, M; W-20-17 cell differentiation assay (alkaline phosphatase) for individual entries
A complete answer gives the number followed by the unit.

binder="H4H6246P (antibody, human IgG4, V domains shown) VH: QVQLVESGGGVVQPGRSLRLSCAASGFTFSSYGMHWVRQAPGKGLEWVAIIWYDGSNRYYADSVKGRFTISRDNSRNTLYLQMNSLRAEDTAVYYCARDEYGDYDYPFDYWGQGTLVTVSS VL: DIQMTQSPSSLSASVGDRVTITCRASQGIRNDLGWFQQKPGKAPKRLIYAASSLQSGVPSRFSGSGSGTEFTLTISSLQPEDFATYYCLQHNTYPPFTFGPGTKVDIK" result="6.2 nM"

Input H4H6248P (antibody, human IgG4, V domains shown) VH: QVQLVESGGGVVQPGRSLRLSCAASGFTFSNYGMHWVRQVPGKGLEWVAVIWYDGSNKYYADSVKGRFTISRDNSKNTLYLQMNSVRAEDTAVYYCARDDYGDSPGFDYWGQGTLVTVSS VL: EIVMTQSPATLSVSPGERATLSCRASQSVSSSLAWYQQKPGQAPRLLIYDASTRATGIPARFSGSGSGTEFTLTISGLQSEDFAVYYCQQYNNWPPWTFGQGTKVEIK , output reported hGREM1-His Inhibition IC50, M; W-20-17 cell differentiation assay (alkaline phosphatase).
5.6 nM

Input H4H2783N2 (antibody, human IgG4, V domains shown) VH: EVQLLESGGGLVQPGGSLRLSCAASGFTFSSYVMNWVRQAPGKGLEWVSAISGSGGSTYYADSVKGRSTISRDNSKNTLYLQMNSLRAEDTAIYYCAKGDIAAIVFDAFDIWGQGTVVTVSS VL: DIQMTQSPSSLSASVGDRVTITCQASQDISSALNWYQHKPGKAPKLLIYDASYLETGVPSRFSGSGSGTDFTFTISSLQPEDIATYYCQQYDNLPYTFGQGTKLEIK , output reported hGREM1-His Inhibition IC50, M; W-20-17 cell differentiation assay (alkaline phosphatase).
5.6 nM
